Read-out: Lipoprotein lipase (LPL), LPL (gene 4023)
PROTOCOL SUMMARY: LTEA_HepaRG_LPL: Life Technologies and Expression Analysis (LTEA) Assay for Lipoprotein lipase (LPL) using HepaRG (AID 2283515)
ASSAY CONTEXT: mRNA level, 48 h; actives raise or lower the signal
Active and inactive are the calls of the source. The calls were made as follows: active = hit-call score of the fitted dose curve at least 0.9, where 1 is the maximum; inactive = score below 0.9.
Outcomes: active, inactive

>>> class_assignment("CCCCOC(=O)[C@@H](C)Oc1ccc(Oc2ccc(C(F)(F)F)cn2)cc1")
"inactive"
>>> class_assignment("CC1(C)C(C=C(Cl)Cl)C1C(=O)OCc1cccc(Oc2ccccc2)c1 (centres undefined)")
"inactive"
>>> class_assignment("CCOC(=O)c1ccc(O)cc1")
"inactive"
>>> class_assignment("S=C([S-])NCCNC(=S)[S-].[Mn+2]")
"active"

###

Read-out: Pyruvate Dehydrogenase Kinase 4 (PDK4), PDK4 (gene 5166)
PROTOCOL SUMMARY: LTEA_HepaRG_PDK4: Life Technologies and Expression Analysis (LTEA) Assay for Pyruvate Dehydrogenase Kinase 4 (PDK4) using HepaRG (AID 2283525)
ASSAY CONTEXT: mRNA level, 48 h; actives raise or lower the signal
Active and inactive are the calls of the source. Rule for the calls: active = hit-call score of the fitted dose curve at least 0.9, where 1 is the maximum; inactive = score below 0.9.
Outcomes: active, inactive

>>> class_assignment("O=C(c1ccc(O)cc1O)c1ccc(O)cc1O")
"inactive"
>>> class_assignment("O=C(Nc1ccc([N+](=O)[O-])cc1Cl)c1cc(Cl)ccc1O")
"active"
>>> class_assignment("C[C@]12CC[C@@H]3c4ccc(O)cc4C[C@@H](CCCCCCCCCS(=O)CCCC(F)(F)C(F)(F)F)[C@H]3[C@@H]1CC[C@@H]2O (stereo partly specified)")
"active"
>>> class_assignment("CSC(=O)c1cccc2nnsc12")
"inactive"
>>> class_assignment("CCN(Cc1c(F)cccc1Cl)c1c([N+](=O)[O-])cc(C(F)(F)F)cc1[N+](=O)[O-]")
"inactive"
>>> class_assignment("CCOC(=O)COc1cc(-n2ncc(C(F)(F)F)c(C)c2=O)c(F)cc1Cl")
"inactive"
>>> class_assignment("O=C(O)c1ccccc1")
"inactive"
>>> class_assignment("CC(C)(C)[C@@H](O)[C@@H](Cc1ccc(Cl)cc1)n1cncn1")
"inactive"
>>> class_assignment("CCCCOCCOCCOCc1cc2c(cc1CCC)OCO2")
"active"
>>> class_assignment("C=CCOC(Cn1ccnc1)c1ccc(Cl)cc1Cl (stereo unspecified)")
"active"
>>> class_assignment("COC(=O)c1ccc(I)cc1S(=O)(=O)NC(=O)Nc1nc(C)nc(OC)n1")
"inactive"
>>> class_assignment("CCCCOC(=O)C(C)Oc1ccc(Oc2ccc(C(F)(F)F)cn2)cc1 (stereo unspecified)")
"inactive"
>>> class_assignment("N[C@@H](Cc1cc(I)c(Oc2ccc(O)c(I)c2)c(I)c1)C(=O)O")
"active"
>>> class_assignment("CCOC(=O)C(C)Oc1ccc(Oc2nc3ccc(Cl)cc3o2)cc1 (stereo unspecified)")
"inactive"
>>> class_assignment("COc1c(Cl)ccc(Cl)c1C(=O)O")
"inactive"
>>> class_assignment("CCN(CC)C(=O)c1cccc(C)c1")
"inactive"
>>> class_assignment("c1ccc(Nc2ccccc2)cc1")
"inactive"
>>> class_assignment("CC(=O)[C@H]1CC[C@H]2[C@@H]3CCC4=CC(=O)CC[C@]4(C)[C@H]3CC[C@]12C")
"active"
>>> class_assignment("CC(=O)S[C@@H]1CC2=CC(=O)CC[C@]2(C)[C@H]2CC[C@@]3(C)[C@@H](CC[C@@]34CCC(=O)O4)[C@H]12")
"active"
>>> class_assignment("CCC(C)OC(=O)N1CCCCC1CCO (stereo unspecified)")
"inactive"
>>> class_assignment("CCNc1nc(N)nc(Cl)n1")
"inactive"
